The origin of these recorded values is ChEMBL document CHEMBL1139756.

- MEASURED TARGET: Peroxisome proliferator-activated receptor gamma (Homo sapiens)
- Sequence (P37231 whole entry): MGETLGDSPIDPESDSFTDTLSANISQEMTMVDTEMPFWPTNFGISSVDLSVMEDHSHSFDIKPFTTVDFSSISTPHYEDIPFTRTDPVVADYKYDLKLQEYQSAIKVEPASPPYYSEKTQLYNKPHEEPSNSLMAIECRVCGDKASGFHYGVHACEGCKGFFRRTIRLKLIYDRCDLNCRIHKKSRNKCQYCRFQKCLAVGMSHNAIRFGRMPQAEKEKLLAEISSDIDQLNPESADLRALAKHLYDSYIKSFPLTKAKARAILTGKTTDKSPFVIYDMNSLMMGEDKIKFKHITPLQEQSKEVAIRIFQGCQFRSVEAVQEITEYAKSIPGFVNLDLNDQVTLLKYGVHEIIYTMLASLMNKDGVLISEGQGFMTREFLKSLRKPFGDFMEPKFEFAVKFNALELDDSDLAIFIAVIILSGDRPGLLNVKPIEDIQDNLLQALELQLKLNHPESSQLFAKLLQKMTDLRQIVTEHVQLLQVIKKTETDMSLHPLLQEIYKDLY
Entries and their pEC50 values follow.
Interpret pEC50 as the negative base-10 log of the concentration measured in mol/L.

In the examples that follow, each entry is paired with its recorded pEC50.
>>> print(df.to_string())
                            chemical_smiles  metric  readout_value
0  CCOC(=O)C1=C(c2ccc3c(c2)OCO3)c2ccc(OCCCc3ccccc3)cc2/C1=[N+](/C)[O-]   pEC50           6.60
1  CCOC(=O)C1=C(c2cccc(C)c2)c2ccc(OCCCc3ccccc3)cc2/C1=[N+](/C)[O-]   pEC50           6.52
2  C/[N+]([O-])=C1\C(C(=O)NC2CC2)=C(c2ccccc2)c2ccc(OCCN3CCOCC3)cc21   pEC50           7.70
3  CCOC(=O)C1=C(CC)c2ccc(OCCCc3ccccc3)cc2/C1=[N+](/C)[O-]   pEC50           7.10

Quick one: pEC50 of `CCOC(=O)C1=C(c2ccccc2)c2ccc(OCCC34CC5CC(CC(C5)C3)C4)cc2/C1=[N+](/C)[O-]` ?
6.08

Quick one: pEC50 of `COC(=O)C1=C(c2ccccc2)c2ccc(OCCN3CCOCC3)cc2/C1=[N+](/C)[O-]` ?
6.85

Quick one: pEC50 of `CCOC(=O)C1=C(c2ccccc2)c2ccc(OC)cc2/C1=N\OC` ?
5.82

Quick one: pEC50 of `CCOC(=O)C1=C(c2ccsc2)c2ccc(OCCCc3ccccc3)cc2/C1=[N+](/C)[O-]` ?
6.72

###

- MEASURED TARGET: Peroxisome proliferator-activated receptor gamma (Homo sapiens, UniProt P37231)
- Sequence (P37231 whole entry): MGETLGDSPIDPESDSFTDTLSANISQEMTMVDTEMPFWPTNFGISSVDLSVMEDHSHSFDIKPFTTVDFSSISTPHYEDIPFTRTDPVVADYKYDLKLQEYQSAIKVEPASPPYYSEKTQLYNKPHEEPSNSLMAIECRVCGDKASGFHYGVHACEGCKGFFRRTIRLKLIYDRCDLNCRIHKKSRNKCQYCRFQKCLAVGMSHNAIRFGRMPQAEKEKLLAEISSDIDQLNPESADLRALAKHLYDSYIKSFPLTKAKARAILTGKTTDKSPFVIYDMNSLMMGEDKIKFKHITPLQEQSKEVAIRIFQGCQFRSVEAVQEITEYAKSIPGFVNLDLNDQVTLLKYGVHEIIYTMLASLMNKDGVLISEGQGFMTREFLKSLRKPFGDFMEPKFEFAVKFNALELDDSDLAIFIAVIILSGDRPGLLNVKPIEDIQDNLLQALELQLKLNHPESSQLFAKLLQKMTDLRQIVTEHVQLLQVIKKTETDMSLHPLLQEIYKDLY
Entries and their pEC50 values follow.
Interpret pEC50 as the negative base-10 log of the concentration measured in mol/L.

                            chemical_smiles                           measured_target  readout_value
0  CCOC(=O)C1=C(c2ccccc2)c2ccc(OCc3ccccn3)cc2/C1=[N+](/C)[O-]  Peroxisome proliferator-activated receptor gamma (Homo sapiens, UniProt P37231)           7.05
1  C/[N+]([O-])=C1\C=C(c2ccccc2)c2ccc(OCCN3CCOCC3)cc21  Peroxisome proliferator-activated receptor gamma (Homo sapiens, UniProt P37231)           6.82
2  CCOC(=O)C1=C(c2ccc(Cl)cc2)c2ccc(OCCCc3ccccc3)cc2/C1=[N+](/C)[O-]  Peroxisome proliferator-activated receptor gamma (Homo sapiens, UniProt P37231)           7.15

Now turn to the next compound.
Quick one: pEC50 of `CCOC(=O)C1=C(c2ccc(C)cc2)c2ccc(OCCCc3ccccc3)cc2/C1=[N+](/C)[O-]` ?
6.18

###

Entries and their pEC50 values follow.
- MEASURED TARGET: Peroxisome proliferator-activated receptor gamma (Homo sapiens)
- Sequence (P37231 whole entry): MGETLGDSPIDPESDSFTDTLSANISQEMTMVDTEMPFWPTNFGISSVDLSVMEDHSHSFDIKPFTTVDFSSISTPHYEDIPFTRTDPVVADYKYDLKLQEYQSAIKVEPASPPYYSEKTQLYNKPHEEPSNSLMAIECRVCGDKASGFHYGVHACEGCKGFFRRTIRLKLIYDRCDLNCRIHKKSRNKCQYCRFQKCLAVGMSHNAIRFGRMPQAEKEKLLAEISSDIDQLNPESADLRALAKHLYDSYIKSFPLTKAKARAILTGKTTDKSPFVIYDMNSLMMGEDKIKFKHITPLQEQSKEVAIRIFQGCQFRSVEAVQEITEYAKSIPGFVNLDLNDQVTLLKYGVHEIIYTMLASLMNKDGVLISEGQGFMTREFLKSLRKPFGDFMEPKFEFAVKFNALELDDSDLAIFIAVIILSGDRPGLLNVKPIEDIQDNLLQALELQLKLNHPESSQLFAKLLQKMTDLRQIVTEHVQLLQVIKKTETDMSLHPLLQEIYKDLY
pEC50: −log10 of the molar value.

>>> print(df.to_string())
                            chemical_smiles  readout_value
0  CCOC(=O)C1=C(c2ncc[nH]2)c2ccc(OCCCc3ccccc3)cc2/C1=[N+](/C)[O-]         < 6.00
1  CCOC(=O)C1=C(c2ccccc2)c2ccc(OC)cc2/C1=[N+](\[O-])CC         < 5.00
2  CCOC(=O)C1=C(c2ccccc2)c2ccc(OC)cc2/C1=[N+](\[O-])Cc1ccccc1         < 5.00

Now turn to the next molecule.
Quick check: pEC50 on Peroxisome proliferator-activated receptor gamma (Homo sapiens), item `CCOC(=O)C1=C(c2ccccc2)c2ccc(OC)cc2/C1=N\O` ?
< 5.00
